Target: Sodium-dependent dopamine transporter (Rattus norvegicus, UniProt P23977)
Sequence (P23977 whole entry): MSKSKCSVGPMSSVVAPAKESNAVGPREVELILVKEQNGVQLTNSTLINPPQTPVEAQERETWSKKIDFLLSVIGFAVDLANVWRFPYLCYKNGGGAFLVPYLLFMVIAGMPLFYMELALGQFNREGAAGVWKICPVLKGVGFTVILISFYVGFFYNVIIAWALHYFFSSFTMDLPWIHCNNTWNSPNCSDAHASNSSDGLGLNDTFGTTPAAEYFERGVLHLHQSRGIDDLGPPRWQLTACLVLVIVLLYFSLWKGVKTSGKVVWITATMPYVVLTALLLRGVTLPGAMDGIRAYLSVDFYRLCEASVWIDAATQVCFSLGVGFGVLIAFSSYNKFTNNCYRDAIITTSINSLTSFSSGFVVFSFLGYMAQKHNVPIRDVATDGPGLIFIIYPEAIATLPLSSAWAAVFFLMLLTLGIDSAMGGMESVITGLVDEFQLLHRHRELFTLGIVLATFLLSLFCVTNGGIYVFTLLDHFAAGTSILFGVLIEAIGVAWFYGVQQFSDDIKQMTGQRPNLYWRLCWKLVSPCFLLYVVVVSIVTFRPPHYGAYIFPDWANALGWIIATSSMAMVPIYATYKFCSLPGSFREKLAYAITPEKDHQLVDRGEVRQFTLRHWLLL
Test: Agonist activity at rat DAT expressed in CHO cells
Property label: EC50 (µM)
Report only the number, with the unit µM understood.

Here's what some known entries look like.
> print(dat)
                            molecule.smiles  property.label  result
1  CCCC(=O)Oc1cc(O)c2c(=O)cc(-c3ccc(O)c(O)c3)oc2c1            EC50    1.69
2  CC(C)C(=O)Oc1cc(O)cc2oc(-c3ccc(O)c(O)c3)cc(=O)c12            EC50   0.046
3  CCCCOc1cc(O)cc2oc(-c3ccc(O)c(O)c3)cc(=O)c12            EC50     2.4
4  COc1cc(OC)c2c(=O)cc(-c3ccc(O)c(O)c3)oc2c1            EC50    3.42

# ---- query compound ----
Asked: Give a short answer stating reported EC50 for "CCOc1cc(O)cc2oc(-c3ccc(O)c(O)c3)cc(=O)c12" .
Given back: 2.21
